Measured mass density by item
conditions: 318.15 K; Liquid; Vibrating tube method
readout name: mass density (kg/m3)

compound=CCCCCCCCC obs_value=698.06
compound=CCCCCCC obs_value=662.33
compound="CCC(=O)OC [methyl propanoate]" obs_value=884.71
compound="CCOC(=O)CC [ethyl propanoate]" obs_value=861.08

----------
conditions: 328.15 K; Liquid; Vibrating tube method
readout name: mass density (kg/m3)

molecule="CCCCCCC [heptane]" obs_value=653.61
molecule="CCOC(=O)CC [ethyl propanoate]" obs_value=849.41
molecule="CCCCCCCCC [nonane]" obs_value=690.17
molecule="CCC(=O)OC [methyl propanoate]" obs_value=872.22

----------
details: 288.15 K; Liquid; Vibrating tube method
± gives the expanded uncertainty stated by the source.
readout name: mass density

compound="CCOC(=O)CC [ethyl propanoate]" obs_value="895.58 ± 0.72 kg/m3"
compound=CCCCC obs_value="630.78 ± 0.26 kg/m3"
compound="CCC(=O)OC [methyl propanoate]" obs_value="921.21 ± 0.89 kg/m3"
compound=CCCCCCC obs_value="688.16 ± 0.25 kg/m3"
compound=CCCCCCCCC obs_value="721.65 ± 0.24 kg/m3"

----------
Recorded mass density for the following molecules
settings: 298.15 K; Liquid; Vibrating tube method
readout name: mass density (kg/m3)

molecule="CCCCCCCCC [nonane]" unit_info=kg/m3 obs_value=713.85
molecule="CCOC(=O)CC [ethyl propanoate]" unit_info=kg/m3 obs_value=884.15
molecule="CCCCCCC [heptane]" unit_info=kg/m3 obs_value=679.62
molecule="CCC(=O)OC [methyl propanoate]" unit_info=kg/m3 obs_value=909.1
molecule="CCCCC [pentane]" unit_info=kg/m3 obs_value=620.9

----------
conditions: 308.15 K; Liquid; Vibrating tube method
Numbers after ± are expanded uncertainties.
readout name: mass density

compound="CCOC(=O)CC [ethyl propanoate]" readout_name="mass density" obs_value="872.62 ± 0.7 kg/m3"
compound="CCCCCCC [heptane]" readout_name="mass density" obs_value="670.96 ± 0.25 kg/m3"
compound="CCC(=O)OC [methyl propanoate]" readout_name="mass density" obs_value="896.91 ± 0.86 kg/m3"
compound="CCCCCCCCC [nonane]" readout_name="mass density" obs_value="705.96 ± 0.25 kg/m3"

----------
assay: refractive index (Na D-line) (dimensionless); conditions: 298.15 K; 101.33 kPa; Liquid; Standard Abbe refractometry
Numbers after ± are expanded uncertainties.
readout name: refractive index

compound=CCCCCCCCC readout_name="refractive index" obs_value="1.4032 ± 0.0005"
compound=CCCCCCC readout_name="refractive index" obs_value="1.3853 ± 0.0005"
compound="CCC(=O)OC [methyl propanoate]" readout_name="refractive index" obs_value="1.3743 ± 0.0007"
compound="CCOC(=O)CC [ethyl propanoate]" readout_name="refractive index" obs_value="1.3811 ± 0.0006"
compound=CCCCC readout_name="refractive index" obs_value="1.3547 ± 0.0005"

These entries and their values trace back to the NIST ThermoML archive (doi:10.1021/je4009415).
